- Assayed system: Kappa-type opioid receptor (Homo sapiens, UniProt P41145)
- Sequence (P41145 whole entry): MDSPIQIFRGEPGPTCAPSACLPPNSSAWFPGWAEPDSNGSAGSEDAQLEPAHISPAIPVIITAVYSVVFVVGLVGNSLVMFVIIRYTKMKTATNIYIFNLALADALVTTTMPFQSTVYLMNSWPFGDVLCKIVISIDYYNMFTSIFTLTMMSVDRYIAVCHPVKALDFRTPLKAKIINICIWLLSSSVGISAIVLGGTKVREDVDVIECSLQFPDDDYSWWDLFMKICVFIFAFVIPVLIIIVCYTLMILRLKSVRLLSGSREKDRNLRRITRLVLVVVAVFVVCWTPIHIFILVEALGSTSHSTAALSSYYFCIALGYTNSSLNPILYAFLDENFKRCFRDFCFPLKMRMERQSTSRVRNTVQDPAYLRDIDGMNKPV
pKi: −log10 of the molar value. Numbered stars: 1 amine (or outer) side, 2 acyl side, 3 side chain; on linkers, the order of the positions; unused ones are H or OH. Bridge positions count the residues as written; N and C are the ends. Square brackets hold non-standard residues; d marks the D form. Peptide text beside a SMILES is read from it. 1Nal = N[C@@H](Cc1cccc2ccccc12)C(=O)O; 2Nal = N[C@@H](Cc1ccc2ccccc2c1)C(=O)O; CH2 = C([*:1])[*:2]
Recorded pKi for the following molecules
Measurement type: pKi

Molecule: NC(=O)[C@@H]1CSCSC[C@@H](NC(=O)[C@@H](N)Cc2ccc(O)cc2)C(=O)N[C@@H](Cc2ccccc2)C(=O)N[C@@H](Cc2cccc3ccccc23)C(=O)N1 (H-Y[dC]F[1Nal]C-NH2; linker 2-5 via CH2)
Value observed: 8.22
//
Molecule: NC(=O)[C@@H]1CSSC[C@@H](NC(=O)[C@@H](N)Cc2ccc(O)cc2)C(=O)N[C@@H](Cc2ccccc2)C(=O)N[C@@H](Cc2cccc3ccccc23)C(=O)N1 (H-Y[dC]F[1Nal]C-NH2; disulfide 2-5)
Value observed: 7.96
//
Molecule: NC(=O)[C@@H]1CSSC[C@@H](NC(=O)[C@@H](N)Cc2ccc(O)cc2)C(=O)N[C@@H](Cc2ccccc2)C(=O)N[C@@H](Cc2ccc3ccccc3c2)C(=O)N1 (H-Y[dC]F[2Nal]C-NH2; disulfide 2-5)
Value observed: 8.23

----------
The following are reported pKi results, target or system Mu-type opioid receptor (Rattus norvegicus).
pKi: −log10 of the molar value. Numbered stars: 1 amine (or outer) side, 2 acyl side, 3 side chain; on linkers, the order of the positions; unused ones are H or OH. Bridge positions count the residues as written; N and C are the ends. Square brackets hold non-standard residues; d marks the D form. Peptide text beside a SMILES is read from it. 1Nal = N[C@@H](Cc1cccc2ccccc12)C(=O)O; 2Nal = N[C@@H](Cc1ccc2ccccc2c1)C(=O)O; CH2 = C([*:1])[*:2]

Compound: NC(=O)[C@@H]1CSSC[C@@H](NC(=O)[C@@H](N)Cc2ccc(O)cc2)C(=O)N[C@@H](Cc2ccccc2)C(=O)N[C@@H](Cc2ccc3ccccc3c2)C(=O)N1 (H-Y[dC]F[2Nal]C-NH2; disulfide 2-5)
pKi: 8.92
//
Compound: NC(=O)[C@@H]1CSCSC[C@@H](NC(=O)[C@@H](N)Cc2ccc(O)cc2)C(=O)N[C@@H](Cc2ccccc2)C(=O)N[C@@H](Cc2cccc3ccccc23)C(=O)N1 (H-Y[dC]F[1Nal]C-NH2; linker 2-5 via CH2)
pKi: 9.21
//
Compound: NC(=O)[C@@H]1CSSC[C@@H](NC(=O)[C@@H](N)Cc2ccc(O)cc2)C(=O)N[C@@H](Cc2ccc3ccccc3c2)C(=O)N[C@@H](Cc2ccccc2)C(=O)N1 (H-Y[dC][2Nal]FC-NH2; disulfide 2-5)
pKi: 9.14
